System: UO-31
Assay: NCI tumour cell line growth inhibition, 48 h
Active and inactive are the calls of the source. No stated cut-off is given here; in the data, active = GI50 up to about 1.1 µM and inactive = higher.
Quick list: GI50 per entry.

[
  {
    "CHEMICAL STRING": "COc1ccc2c(c1)CCN=C2Cc1cc(OC)c(OC)cc1CCCl",
    "GI50": "29.2 µM (inactive)"
  },
  {
    "CHEMICAL STRING": "COc1ccc2[nH]c3c(cnn4cnnc34)c2c1",
    "GI50": "> 100 µM (inactive)"
  },
  {
    "CHEMICAL STRING": "CC(C)(C)C[P+](C)(C)c1ccccc1",
    "GI50": "> 100 µM (inactive)"
  },
  {
    "CHEMICAL STRING": "Cc1cc(C)nc(NS(=O)(=O)c2ccc(NC(=O)c3ccc(Cl)c4c(Nc5ccc(S(=O)(=O)Nc6nc(C)cc(C)n6)cc5)c5ccccc5nc34)cc2)n1",
    "GI50": "24.9 µM (inactive)"
  }
]

For this molecule ( "C=CCN(c1cc(OCc2ccccc2)c(NC(C)=O)cc1[N+](=O)[O-])S(C)(=O)=O" ), measured GI50 is 33.1 µM (inactive)

---

System: Hs-578T
Assay: NCI tumour cell line growth inhibition, 48 h
The source made the active and inactive calls. Cut-off read from the data, not from the text of the source: active = GI50 up to about 1.1 µM and inactive = higher.
One label from this list, please: 1.0 for active, 0.0 for inactive

Which outcome was assigned to CC1(C)CCC2(C(=O)OC3OC(CO)C(O)C(O)C3O)CCC3(C)C(=CCC4C5(C)CCC(OC6OC(CO)C(O)C(O)C6O)C(C)(C)C5CCC43C)C2C1 (centres undefined) in this test?
0.0

Which outcome was assigned to "CCOC(=O)c1ccc(N(CCOS(=O)(=O)c2ccc(C)cc2)CCOS(=O)(=O)c2ccc(C)cc2)cc1" in this test?
0.0

Which outcome was assigned to "CCOC(=O)Cc1nc2sc(S(N)(=O)=O)nn2c1Br" in this test?
0.0

Which outcome was assigned to C=C(C)C1CC2=C(O1)C(=O)c1cccc(O)c1C2=O (centres undefined) in this test?
0.0

Which outcome was assigned to O=[N+]([O-])c1ccc(C2Nn3c(nnc3-c3cccc([N+](=O)[O-])c3)S2)cc1 (centres undefined) in this test?
0.0

Which outcome was assigned to "CCCC(=O)Nc1cc(C(=O)N2C[C@@H]3C[C@]34C2=CC(=O)c2[nH]cc(C)c24)n(COC)c1" in this test?
0.0

Which outcome was assigned to "Cc1ccccc1NC(=O)C(=O)Cc1cnc2ccccc2n1" in this test?
0.0

Which outcome was assigned to "COc1ccc(N2C(=O)C(=O)N(c3ccc(/N=N\c4ccccc4)cc3)C2=S)cc1" in this test?
0.0

Which outcome was assigned to "Cc1ccc(NC(=O)c2cc3ccccc3c(/N=N\c3ccccc3O)c2O)c(C)c1" in this test?
0.0

---

Tested on: HT-29
Test: NCI tumour cell line growth inhibition, 48 h
The source made the active and inactive calls. Cut-off read from the data, not from the text of the source: active = GI50 up to about 1.1 µM and inactive = higher.
One label from this list, please: active, inactive

Answered examples (3):
[
  {
    "COMPOUND": "Cc1ccc(/N=N/c2c(O)ccc3ccccc23)c(C)c1",
    "LABEL": "inactive"
  },
  {
    "COMPOUND": "CCN(CC)C(=S)/N=C(\\SC(=S)N(CC)CC)c1ccccc1",
    "LABEL": "active"
  },
  {
    "COMPOUND": "Nc1cccc(Nc2nc3ccccc3nc2NS(=O)(=O)c2ccccc2)c1",
    "LABEL": "inactive"
  }
]

Which outcome was assigned to CC(CCCC1SCC2NC(=O)NC21)C(=O)O (stereo not given) in this test?
inactive

Which outcome was assigned to "C=C(CN)CO[Si](C)(C)C(C)(C)C" in this test?
inactive

Which outcome was assigned to "C=C(C1=CC(=O)C(C)(C)O1)[C@@H]1CC=C([C@@H]2CC[C@H]3[C@@]2(C)CC[C@H]2C(C)(C)C(=O)[C@H](O)C[C@]32C)[C@H](O)O1" in this test?
inactive

Which outcome was assigned to "Clc1cc(-c2ccccc2)nc2ccccc12" in this test?
inactive

Which outcome was assigned to "CCOC(=O)CC(=O)CSc1c(-c2ccccc2)c(=O)n(-c2ccccc2)c(=S)n1-c1ccccc1" in this test?
inactive

Which outcome was assigned to Cc1ccc(S(=O)(=O)N2CCC[C@@H]2C(=O)O[C@@H]2CCC3CC=CC32)cc1 (stereo not given in full) in this test?
inactive

Which outcome was assigned to "COC(=O)/C(C#N)=C1\NN=NN1c1ccc(OC)cc1" in this test?
inactive
